measured.on: canine TRPM8 (Canis lupus familiaris)
Construct: expressed in transfected cells
Sequence (Q1A7N1 1-1104): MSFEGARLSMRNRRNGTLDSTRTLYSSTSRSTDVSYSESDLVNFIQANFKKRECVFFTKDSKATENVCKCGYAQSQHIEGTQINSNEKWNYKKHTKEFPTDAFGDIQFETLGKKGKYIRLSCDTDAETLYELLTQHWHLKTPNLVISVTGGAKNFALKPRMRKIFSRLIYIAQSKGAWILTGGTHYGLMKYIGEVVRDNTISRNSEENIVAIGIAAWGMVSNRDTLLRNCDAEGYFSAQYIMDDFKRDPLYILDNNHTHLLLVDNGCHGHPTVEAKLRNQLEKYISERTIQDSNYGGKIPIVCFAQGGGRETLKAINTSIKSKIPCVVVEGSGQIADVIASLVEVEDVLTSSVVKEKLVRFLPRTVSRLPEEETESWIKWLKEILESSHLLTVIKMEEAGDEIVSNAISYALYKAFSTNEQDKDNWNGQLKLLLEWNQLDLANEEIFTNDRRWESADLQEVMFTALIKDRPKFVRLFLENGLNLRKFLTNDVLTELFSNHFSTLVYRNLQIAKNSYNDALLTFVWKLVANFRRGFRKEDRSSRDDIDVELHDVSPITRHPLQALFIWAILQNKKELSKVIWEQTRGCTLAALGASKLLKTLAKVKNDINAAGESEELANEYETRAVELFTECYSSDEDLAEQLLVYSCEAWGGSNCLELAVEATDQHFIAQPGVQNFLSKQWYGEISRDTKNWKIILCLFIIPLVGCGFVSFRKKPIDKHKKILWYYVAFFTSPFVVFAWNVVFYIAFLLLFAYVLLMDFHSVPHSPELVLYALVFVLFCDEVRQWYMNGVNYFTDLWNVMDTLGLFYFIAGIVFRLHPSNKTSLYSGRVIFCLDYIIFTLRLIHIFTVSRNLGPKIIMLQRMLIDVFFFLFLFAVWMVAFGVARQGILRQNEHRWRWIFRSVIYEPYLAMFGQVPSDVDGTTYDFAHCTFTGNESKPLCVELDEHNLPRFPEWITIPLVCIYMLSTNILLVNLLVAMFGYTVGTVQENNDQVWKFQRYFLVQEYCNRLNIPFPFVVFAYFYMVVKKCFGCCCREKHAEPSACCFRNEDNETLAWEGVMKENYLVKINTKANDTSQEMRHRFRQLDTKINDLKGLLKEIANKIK
protocol: In vitro canine TRPM8 functional assay (Ca2+-sensitive dye, FLIPR/FDSS, icilin activation)
Assay type: cell-based
settings: 0.5 μM compound; HEK293 cells expressing canine TRPM8, icilin activation
Entries and their measured % I (0.5 μM) follow.
Express the result in % but write the number alone.

compound	measured.on	% I (0.5 μM), %
CCOP(=O)(OCC)C(Cc1ccc(C#N)cc1)c1sc2ccccc2c1Br (stereo not drawn)	canine TRPM8 (Canis lupus familiaris)	102
CCOP(=O)(OCC)C(Cc1ccc(OC(F)(F)F)c(Cl)c1)c1sc2ccccc2c1Cl (stereo not drawn)	canine TRPM8 (Canis lupus familiaris)	103

API: the following record is the query input.
Value lookup for % I (0.5 μM); key = CCOP(=O)(OCC)C(Cc1cc(F)cc(Cl)c1)c1sc2ccccc2c1Cl (stereo not drawn)
103
